- Tested on: Human primary small intestinal epithelial cells (HSIEC); for Cellular Metabolic Activity: unit not given here
- experimental-setup: 100 μM; 48 h
reported-property: Cellular Metabolic Activity
Answers are plain numbers.

For each of the items listed, what is its Cellular Metabolic Activity?
1. COc1cc(CNC(=O)CCCC/C=C/C(C)C)ccc1O
2. O=C/C=C/c1ccccc1
3. C=CCc1ccc(O)c(OC)c1
4. O=C(/C=C/C=C/c1ccc2c(c1)OCO2)N1CCCCC1
5. Cc1ccc(C(C)C)cc1O

1. 0.150
2. 0.016
3. 0.136
4. 0.175
5. 0.106

###

- System: Human primary small intestinal epithelial cells (HSIEC); for Cellular Metabolic Activity: unit not given here
- experimental-setup: 20 μM; 24 h
For each entry below, report its Cellular Metabolic Activity value.

Some solved entries appear below for comparison.
In [3]: df
Out[3]:
                                   molecule            reported_property  test_result
0             Cc1ccc(C(C)C)cc1O [carvacrol]  Cellular Metabolic Activity        0.071
1  COc1cc(/C=C/C(=O)CC(=O)/C=C/c2ccc(O)c(OC)c2)ccc1O [curcumin]  Cellular Metabolic Activity        0.059
2  O=C/C=C/c1ccccc1 [cinnamaldehyde, (2E)-3-phenylprop-2-enal]  Cellular Metabolic Activity        0.169
3  CN(C)CCc1c[nH]c2cccc(OP(=O)(O)O)c12 [psilocybin, reference compound]  Cellular Metabolic Activity        0.150

With those in mind, consider the next molecule.
GET /values?readout=Cellular Metabolic Activity&system=Human primary small intestinal epithelial cells (HSIEC)&item= O=C(/C=C/C=C/c1ccc2c(c1)OCO2)N1CCCCC1 [piperine]; for Cellular Metabolic Activity: unit not given here
0.075

###

- Tested on: Human primary small intestinal epithelial cells (HSIEC); for Cellular Metabolic Activity: unit not given here
- experimental-setup: 200 μM; 72 h
reported-property: Cellular Metabolic Activity
Answers are plain numbers.

>>> print(df.to_string())
                         smiles_entry  test_result
0  COc1cc(CNC(=O)CCCC/C=C/C(C)C)ccc1O        0.144

For each of the items listed, what is its Cellular Metabolic Activity?
1. C=CCc1ccc(O)c(OC)c1
2. Cc1ccc(C(C)C)cc1O

[0.296, 0.179]

Please look up its Cellular Metabolic Activity: O=C(/C=C/C=C/c1ccc2c(c1)OCO2)N1CCCCC1
0.243

###

- Tested on: Human primary small intestinal epithelial cells (HSIEC); for Cellular Metabolic Activity: unit not given here
- experimental-setup: 10 μM; 72 h
For each entry below, report its Cellular Metabolic Activity value.
Give bare numbers.

Some solved entries appear below for comparison.
In [3]: df
Out[3]:
                                   molecule            reported_property  test_result
0     O=C(/C=C/C=C/c1ccc2c(c1)OCO2)N1CCCCC1  Cellular Metabolic Activity        0.271
1                         Cc1ccc(C(C)C)cc1O  Cellular Metabolic Activity        0.267
2        COc1cc(CNC(=O)CCCC/C=C/C(C)C)ccc1O  Cellular Metabolic Activity        0.331
3  CN(C)CCc1c[nH]c2cccc(OP(=O)(O)O)c12 [psilocybin, reference compound]  Cellular Metabolic Activity        0.388
4                       C=CCc1ccc(O)c(OC)c1  Cellular Metabolic Activity        0.346
5                          O=C/C=C/c1ccccc1  Cellular Metabolic Activity        0.160

With those in mind, consider the next molecule.
Please look up its Cellular Metabolic Activity: COc1cc(/C=C/C(=O)CC(=O)/C=C/c2ccc(O)c(OC)c2)ccc1O
0.215

###

For each entry below, report its Cellular Metabolic Activity value.
- Test system: Human primary small intestinal epithelial cells (HSIEC); for Cellular Metabolic Activity: unit not given here
- experimental-setup: 10 μM; time 0

In [3]: df
Out[3]:
                                   compound                               measured_on  test_result
0             Cc1ccc(C(C)C)cc1O [carvacrol]  Human primary small intestinal epithelial cells (HSIEC)        0.021
1  COc1cc(/C=C/C(=O)CC(=O)/C=C/c2ccc(O)c(OC)c2)ccc1O [curcumin]  Human primary small intestinal epithelial cells (HSIEC)        0.036
2  CN(C)CCc1c[nH]c2cccc(OP(=O)(O)O)c12 [psilocybin, reference compound]  Human primary small intestinal epithelial cells (HSIEC)        0.038
3  O=C/C=C/c1ccccc1 [cinnamaldehyde, (2E)-3-phenylprop-2-enal]  Human primary small intestinal epithelial cells (HSIEC)        0.022
4  O=C(/C=C/C=C/c1ccc2c(c1)OCO2)N1CCCCC1 [piperine]  Human primary small intestinal epithelial cells (HSIEC)        0.026
5  COc1cc(CNC(=O)CCCC/C=C/C(C)C)ccc1O [capsaicin]  Human primary small intestinal epithelial cells (HSIEC)        0.040

With those in mind, consider the next compound.
Please look up its Cellular Metabolic Activity: C=CCc1ccc(O)c(OC)c1 [eugenol]
0.047

###

- System: Human primary small intestinal epithelial cells (HSIEC); for Cellular Metabolic Activity: unit not given here
- experimental-setup: 80 μM; 72 h
reported-property: Cellular Metabolic Activity
Numbers only.

                                   compound  test_result
0  CN(C)CCc1c[nH]c2cccc(OP(=O)(O)O)c12 [psilocybin, reference compound]        0.579

For each of the items listed, what is its Cellular Metabolic Activity?
1. COc1cc(/C=C/C(=O)CC(=O)/C=C/c2ccc(O)c(OC)c2)ccc1O [curcumin]
2. O=C(/C=C/C=C/c1ccc2c(c1)OCO2)N1CCCCC1 [piperine]
3. O=C/C=C/c1ccccc1 [cinnamaldehyde, (2E)-3-phenylprop-2-enal]
4. Cc1ccc(C(C)C)cc1O [carvacrol]

0.018
0.224
0
0.221

###

Form: system (Human primary small intestinal epithelial cells (HSIEC)), quantity (effect on cell growth / cellular metabolic activity (MTT, words)), values below. For cellular metabolic activity: unit not given here.
reported-property: effect on cell growth / cellular metabolic activity (MTT, words)

>>> df
                                   compound                               measured_on               test_result
0  CC(=O)Oc1cccc2[nH]cc(CCN(C)C)c12 [4-ACO-DMT]  Human primary small intestinal epithelial cells (HSIEC)  increase growth of cells
1  CN(C)CCc1c[nH]c2cccc(OP(=O)(O)O)c12 [psilocybin, reference compound]  Human primary small intestinal epithelial cells (HSIEC)  increase growth of cells

###

For each entry below, report its Cellular Metabolic Activity value.
- Test system: Human primary small intestinal epithelial cells (HSIEC); for Cellular Metabolic Activity: unit not given here
- experimental-setup: 10 μM; 48 h
One number for each entry.

Some solved entries appear below for comparison.
In [3]: df
Out[3]:
                                molecule                               measured_on  test_result
0  O=C(/C=C/C=C/c1ccc2c(c1)OCO2)N1CCCCC1  Human primary small intestinal epithelial cells (HSIEC)        0.183
1                      Cc1ccc(C(C)C)cc1O  Human primary small intestinal epithelial cells (HSIEC)        0.164

For each of the items listed, what is its Cellular Metabolic Activity?
1. O=C/C=C/c1ccccc1
2. CN(C)CCc1c[nH]c2cccc(OP(=O)(O)O)c12 [psilocybin, reference compound]
3. COc1cc(CNC(=O)CCCC/C=C/C(C)C)ccc1O
4. C=CCc1ccc(O)c(OC)c1

[0.119, 0.198, 0.174, 0.168]

Please look up its Cellular Metabolic Activity: COc1cc(/C=C/C(=O)CC(=O)/C=C/c2ccc(O)c(OC)c2)ccc1O
0.115

###

- System: Human primary small intestinal epithelial cells (HSIEC); for Cellular Metabolic Activity: unit not given here
- experimental-setup: 40 μM; 72 h
reported-property: Cellular Metabolic Activity
Give bare numbers.

Some solved entries appear below for comparison.
In [3]: df
Out[3]:
                                   compound  test_result
0     O=C(/C=C/C=C/c1ccc2c(c1)OCO2)N1CCCCC1        0.226
1  COc1cc(/C=C/C(=O)CC(=O)/C=C/c2ccc(O)c(OC)c2)ccc1O        0.014
2  CN(C)CCc1c[nH]c2cccc(OP(=O)(O)O)c12 [psilocybin, reference compound]        0.467
3                          O=C/C=C/c1ccccc1        0.018

With those in mind, consider the next compound.
Please look up its Cellular Metabolic Activity: Cc1ccc(C(C)C)cc1O
0.272

###

- System: Human primary small intestinal epithelial cells (HSIEC); for Cellular Metabolic Activity: unit not given here
- experimental-setup: 100 μM; time 0
For each entry below, report its Cellular Metabolic Activity value.
Give bare numbers.

Some solved entries appear below for comparison.
>>> print(df.to_string())
                                   molecule            reported_property  test_result
0  O=C/C=C/c1ccccc1 [cinnamaldehyde, (2E)-3-phenylprop-2-enal]  Cellular Metabolic Activity        0.027
1             Cc1ccc(C(C)C)cc1O [carvacrol]  Cellular Metabolic Activity        0.026
2             C=CCc1ccc(O)c(OC)c1 [eugenol]  Cellular Metabolic Activity        0.038
3  COc1cc(CNC(=O)CCCC/C=C/C(C)C)ccc1O [capsaicin]  Cellular Metabolic Activity        0.036

With those in mind, consider the next molecule.
Please look up its Cellular Metabolic Activity: O=C(/C=C/C=C/c1ccc2c(c1)OCO2)N1CCCCC1 [piperine]
0.030

Entry source: patent US20230405028A1
